Listed here are compounds together with their documented MIC90.
System: Clostridium beijerinckii
Assay: Antimicrobial activity against Clostridium beijerinckii by Wadsworth agar dilution method
Type: functional
Just the number in µg/mL, nothing appended.

Examples from the recorded data:
1) NC[C@@H]1O[C@H](O[C@H]2[C@@H](O)[C@H](O[C@@H]3[C@@H](O)[C@H](N)C[C@H](N)[C@H]3O[C@H]3O[C@H](CN)[C@@H](O)[C@H](O)[C@H]3N)O[C@@H]2CO)[C@H](N)[C@@H](O)[C@@H]1O [FRAMYCETIN] : 1020
2) CN[C@H](CC(C)C)C(=O)N[C@H]1C(=O)N[C@@H](CC(N)=O)C(=O)N[C@H]2C(=O)N[C@H]3C(=O)N[C@H](C(=O)N[C@H](C(=O)O)c4cc(O)cc(O)c4-c4cc3ccc4O)[C@H](O)c3ccc(c(Cl)c3)Oc3cc2cc(c3O[C@@H]2O[C@H](CO)[C@@H](O)[C@H](O)[C@H]2O[C@H]2C[C@](C)(N)[C@H](O)[C@H](C)O2)Oc2ccc(cc2Cl)[C@H]1O [VANCOMYCIN] : 4

Fill in the blank: the reported MIC90 of CC(=O)Oc1ccccc1C(=O)Nc1ncc([N+](=O)[O-])s1 [NITAZOXANIDE] is ____.
4
